Measured pKd of individual entries
- measurement.target: recombinant human VDAC1 (hVDAC1) (Homo sapiens, UniProt P21796)
- Construct: His (N); GST (N)
- Sequence (P21796 whole entry): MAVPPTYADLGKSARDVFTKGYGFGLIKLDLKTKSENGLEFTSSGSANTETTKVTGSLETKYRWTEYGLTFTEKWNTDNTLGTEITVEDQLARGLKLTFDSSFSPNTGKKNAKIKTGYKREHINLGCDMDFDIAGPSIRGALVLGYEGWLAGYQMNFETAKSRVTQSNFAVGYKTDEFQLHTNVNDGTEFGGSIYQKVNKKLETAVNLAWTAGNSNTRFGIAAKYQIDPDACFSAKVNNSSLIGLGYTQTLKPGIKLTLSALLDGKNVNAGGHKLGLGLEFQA
- assay.notes: Microscale Thermophoresis (MST) binding assay with labeled VDAC1
- measurement.context: MST, 5 nM labeled VDAC1, 25° C., 12-point dilution 100-0.04 µM; read-out: VDAC1 affinity (KD)
Formally, pKd is defined as -log10 of the concentration c, with c in mol/L.

O=C(CC(CO)N1CCCC2(CCCN(c3ccc(OC(F)(F)F)cc3)C2)C1)Nc1ccc(Cl)cc1 (centres unmarked); 5.72
O=C(CC(CO)N1CC2CN(c3ccc(OC(F)(F)F)cc3)CC2C1)Nc1ccc(Cl)cc1 (centres unmarked); 4.94
O=C(CC(CO)N1CCCN(c2ccc(OC(F)(F)F)cc2)CC1)Nc1ccc(Cl)cc1 (centres unmarked); 5.28
O=C(NCC(CO)N1CCN(c2ccc(OC(F)(F)F)cc2)CC1)c1ccc(Cl)cc1 (centres unmarked); 4.92
O=C(CC(CO)N1CCOC2(CCN(c3ccc(OC(F)(F)F)cc3)C2)C1)Nc1ccc(Cl)cc1 (centres unmarked); 5.42

Input O=C(CC(CO)N1CCCC2C1CCN2c1ccc(OC(F)(F)F)cc1)Nc1ccc(Cl)cc1 (centres unmarked) . Output pKd: 5.55

get_value(item= O=C(CC(CO)N1CC2=C(CN(c3ccc(OC(F)(F)F)cc3)C2)C1)Nc1ccc(Cl)cc1 (centres unmarked) , readout=pKd) returns 5.29

The compound listed as O=C(CC(CO)N1CC2(CCN(c3ccc(OC(F)(F)F)cc3)C2)C1)Nc1ccc(Cl)cc1 (centres unmarked) has a reported pKd of 4.88

----------
Kd reference
- measurement.target: recombinant human VDAC1 (hVDAC1) (Homo sapiens, UniProt P21796)
- Construct: His (N); GST (N)
- assay.notes: Microscale Thermophoresis (MST) binding assay with labeled VDAC1
- measurement.context: MST, 5 nM labeled VDAC1, 25° C., 12-point dilution 100-0.04 µM; read-out: VDAC1 affinity (KD)
Express it in µM; write the number only.

# count of solved cases: 2
O=C(CC(CO)N1CCN(c2ccc(OC(F)(F)F)cc2)CC1)Nc1ccc(Cl)cc1 (stereo not drawn) [CAS: 2086257-77-2, reference compound]; 14
O=C(CC(CCO)N1CCN(c2ccc(OC(F)(F)F)cc2)CC1)Nc1ccc(Cl)cc1 (stereo not drawn) [Example 2]; 8.4

Kindly note the recorded Kd for O=C(CC(CO)N1CCCC(C2CN(c3ccc(OC(F)(F)F)cc3)C2)C1)Nc1ccc(Cl)cc1 (stereo not drawn) [Example 6] , which is 9.8
